- Test system: β-adrenoreceptor
- procedure summary: Heart rate (pulse) increase, i.v., anesthetized dogs
- Assay type: in vivo, dog (male hybrid adult dogs)
- measurement context: ED25 beats/min, pulse increase; i.v., anesthetized dogs
Where a name gives a salt, the structure may show the parent alone.
Heart Rate (HR) ED25 beats/min, Compound class ranges: Low: < 4 µg/kg; Mid: ≥ 4 µg/kg and < 5 µg/kg; High: ≥ 5 µg/kg

Below, 5 compounds whose answers are already recorded.
{"compound": "CCNC(CC)C(O)c1ccc(O)c2[nH]c(=O)ccc12.Cl (centres unmarked) [Compound (2), reference compound]", "group label": "Low"}
{"compound": "CCNC(CC)C(O)c1ccc(OC(=O)c2ccc(C)cc2)c2[nH]c(=O)ccc12.Cl (centres unmarked)", "group label": "Low"}
{"compound": "CCC(NC(C)C)C(O)c1ccc(OC(=O)Cc2ccccc2)c2[nH]c(=O)ccc12.Cl (centres unmarked)", "group label": "Low"}
{"compound": "CCNC(CC)C(O)c1ccc(OC(C)=O)c2[nH]c(=O)ccc12.Cl (centres unmarked)", "group label": "Low"}
{"compound": "CCC(NC(C)C)C(O)c1ccc(OC(=O)CC(C)(C)C)c2[nH]c(=O)ccc12 (centres unmarked)", "group label": "Low"}

Ask: Place this compound in its band: COc1ccc(CCNCC(OC(=O)C2CC2)c2ccc(OC(=O)C3CC3)c3[nH]c(=O)ccc23)cc1OC (centres unmarked) [(8), hydrochloride]
Result: Mid

Ask: Place this compound in its band: CCC(NCc1ccccc1)C(O)c1ccc(OC(=O)c2ccc(Cl)cc2)c2[nH]c(=O)ccc12.Cl (centres unmarked)
Result: Mid

Ask: Place this compound in its band: CCC(NC(C)C)C(OC(=O)C1CCCCC1)c1ccc(OC(=O)c2ccc(C)cc2)c2[nH]c(=O)ccc12.Cl (centres unmarked)
Result: High

====

- Tested on: β-adrenoreceptor
- procedure summary: Heart rate (pulse) increase, i.v., anesthetized dogs
- Type: in vivo, dog (male hybrid adult dogs)
- measurement context: ED25 compared to isoproterenol as standard compound
Counter-ions that a name gives are not always drawn.
Listed below: Heart Rate (HR) Relative Potency values for each entry.
Keep it simple and answer with nothing but the number.

{"molecule": "CCC(NC(C)C)C(OC(=O)c1ccc(C)cc1)c1ccc(OC(=O)c2ccc(C)cc2)c2c1CCC(=O)N2 (centres unmarked) [(12), hydrochloride]", "Heart Rate (HR) Relative Potency": 75.5}
{"molecule": "CCNC(CC)C(O)c1ccc(OC(=O)c2ccc(C)cc2)c2[nH]c(=O)ccc12.Cl (centres unmarked)", "Heart Rate (HR) Relative Potency": 15.5}
{"molecule": "CCC(NC(C)C)C(O)c1ccc(OC(=O)C(C)C)c2nc(OC(=O)C(C)C)ccc12.Cl (centres unmarked)", "Heart Rate (HR) Relative Potency": 56.4}
{"molecule": "CC(C)C(=O)Oc1ccc(C(O)C(C)NC(C)(C)C)c2ccc(=O)[nH]c12 (centres unmarked)", "Heart Rate (HR) Relative Potency": 48.3}
{"molecule": "CCC(NC(C)C)C(OC(=O)C1CCCCC1)c1ccc(OC(=O)c2ccc(C)cc2)c2[nH]c(=O)ccc12.Cl (centres unmarked)", "Heart Rate (HR) Relative Potency": 66.9}

Ask: Using the record for CCC(NC(C)C)C(O)c1ccc(OC(=O)CC(C)(C)C)c2[nH]c(=O)ccc12 (centres unmarked) , report its Heart Rate (HR) Relative Potency.
Result: 46.1

Ask: Using the record for CCC(NC(C)C)C(OC(C)=O)c1ccc(OC(C)=O)c2[nH]c(=O)ccc12.Cl (centres unmarked) , report its Heart Rate (HR) Relative Potency.
Result: 64.4

Ask: Using the record for CC(C)(C)NCC(O)c1ccc(O)c(CO)c1 (centres unmarked) [Salubutamol (1), Salbutamol, reference compound] , report its Heart Rate (HR) Relative Potency.
Result: 45.9

====

- system under test: β-adrenoreceptor (Canis lupus familiaris)
- Construct: from tissue; host or cells: airways of anesthetized dogs, in vivo
- Sequence (P54833 whole entry): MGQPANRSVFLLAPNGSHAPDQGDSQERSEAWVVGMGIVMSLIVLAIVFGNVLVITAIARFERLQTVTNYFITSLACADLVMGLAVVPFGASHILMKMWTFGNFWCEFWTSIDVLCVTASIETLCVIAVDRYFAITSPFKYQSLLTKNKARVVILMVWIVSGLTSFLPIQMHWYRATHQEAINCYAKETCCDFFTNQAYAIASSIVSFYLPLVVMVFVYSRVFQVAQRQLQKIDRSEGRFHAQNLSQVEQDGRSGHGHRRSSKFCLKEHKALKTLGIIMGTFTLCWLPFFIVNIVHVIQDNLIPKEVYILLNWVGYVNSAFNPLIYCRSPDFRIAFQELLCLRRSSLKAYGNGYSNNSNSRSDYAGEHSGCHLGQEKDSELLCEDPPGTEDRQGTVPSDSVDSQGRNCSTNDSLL
- procedure summary: Inhibition of histamine-induced bronchial resistance increase (bronchospasm), i.v., Konzett-Rossler method, anesthetized dogs
- Type: in vivo, dog (male hybrid adult dogs)
- measurement context: dog, iv, i.v. 1 minute before histamine 10 μg/kg; anesthetized dogs; read-out: Bronchial Resistance (BR) ED50, Compound
Structures can show the parent of a compound that is named as a salt.
reported endpoint: ED50 (µg/kg)
State just the number; it will be interpreted in µg/kg.

Ask: GET /values?readout=ED50&system=β-adrenoreceptor (Canis lupus familiaris)&item= CCC(NC(C)C)C(O)c1ccc(OC(=O)CC(C)(C)C)c2[nH]c(=O)ccc12 (stereo not shown) [(6)]
Result: 0.42

Ask: GET /values?readout=ED50&system=β-adrenoreceptor (Canis lupus familiaris)&item= CC(C)C(=O)Oc1ccc(C(O)C(C)NC(C)(C)C)c2ccc(=O)[nH]c12 (stereo not shown) [(14)]
Result: 0.47

Ask: GET /values?readout=ED50&system=β-adrenoreceptor (Canis lupus familiaris)&item= CCC(NC(C)C)C(OC(=O)c1ccc(C)cc1)c1ccc(OC(=O)c2ccc(C)cc2)c2c1CCC(=O)N2 (stereo not shown) [(12), hydrochloride]
Result: 0.73

Ask: GET /values?readout=ED50&system=β-adrenoreceptor (Canis lupus familiaris)&item= COc1ccc(CCNCC(OC(=O)C2CC2)c2ccc(OC(=O)C3CC3)c3[nH]c(=O)ccc23)cc1OC (stereo not shown) [(8), hydrochloride]
Result: 0.51

====

Listed below: LD50 values for each entry.
- procedure summary: Acute toxicity by intravenous administration
- measurement context: rat, in vivo, i.v., male rats (dd strain, 18 to 22 g), fasted 12 hours, read-out: LD50 (50% lethal dose)
Where a name gives a salt, the structure may show the parent alone.
State just the number; it will be interpreted in mg/kg.

Below, 5 molecules whose answers are already recorded.
{"molecule": "CCC(NC(C)C)C(OC(=O)c1ccc(C)cc1)c1ccc(OC(=O)c2ccc(C)cc2)c2c1CCC(=O)N2 (stereo not shown) [(12), hydrochloride]", "reported endpoint": "LD50", "measured value": 153}
{"molecule": "COc1ccc(CCNCC(OC(=O)C2CC2)c2ccc(OC(=O)C3CC3)c3[nH]c(=O)ccc23)cc1OC (stereo not shown) [(8), hydrochloride]", "reported endpoint": "LD50", "measured value": 123}
{"molecule": "CCC(NC(C)C)C(OC(=O)C1CCCCC1)c1ccc(OC(=O)c2ccc(C)cc2)c2[nH]c(=O)ccc12.Cl (stereo not shown)", "reported endpoint": "LD50", "measured value": 147}
{"molecule": "CCC(NC(C)C)C(O)c1ccc(OC(=O)CC(C)(C)C)c2[nH]c(=O)ccc12 (stereo not shown)", "reported endpoint": "LD50", "measured value": 107}
{"molecule": "CCNC(CC)C(O)c1ccc(OC(=O)c2ccc(C)cc2)c2[nH]c(=O)ccc12.Cl (stereo not shown)", "reported endpoint": "LD50", "measured value": 132}

Ask: Using the record for CCC(NC(C)C)C(OC(C)=O)c1ccc(OC(C)=O)c2[nH]c(=O)ccc12.Cl (stereo not shown) , report its LD50.
Result: 112

Ask: Using the record for CCNC(CC)C(O)c1ccc(OC(C)=O)c2[nH]c(=O)ccc12.Cl (stereo not shown) , report its LD50.
Result: 105

====

- system under test: β-adrenoreceptor (Canis lupus familiaris)
- Construct: from tissue; host or cells: airways of anesthetized dogs, in vivo
- procedure summary: Inhibition of histamine-induced bronchial resistance increase (bronchospasm), i.v., Konzett-Rossler method, anesthetized dogs
- Format: in vivo, dog (male hybrid adult dogs)
- measurement context: ED50 compared to isoproterenol as standard compound
Structures can show the parent of a compound that is named as a salt.
Listed below: Bronchial Resistance (BR) Relative Potency values for each entry.
Keep it simple and answer with nothing but the number.

{"compound": "CCC(NC(C)C)C(OC(=O)C1CCCCC1)c1ccc(OC(=O)c2ccc(C)cc2)c2[nH]c(=O)ccc12.Cl (centres unmarked) [(13)]", "measured value": 5.92}
{"compound": "CCNC(CC)C(O)c1ccc(OC(=O)c2ccc(C)cc2)c2[nH]c(=O)ccc12.Cl (centres unmarked) [(9)]", "measured value": 1.06}
{"compound": "CC(C)C(=O)Oc1ccc(C(O)C(C)NC(C)(C)C)c2ccc(=O)[nH]c12 (centres unmarked) [(14)]", "measured value": 3.92}
{"compound": "COc1ccc(CCNCC(OC(=O)C2CC2)c2ccc(OC(=O)C3CC3)c3[nH]c(=O)ccc23)cc1OC (centres unmarked) [(8), hydrochloride]", "measured value": 4.64}

Now consider a different compound.
Ask: Using the record for CCNC(CC)C(O)c1ccc(OC(C)=O)c2[nH]c(=O)ccc12.Cl (centres unmarked) [(4)] , report its Bronchial Resistance (BR) Relative Potency.
Result: 3.81

====

Listed below: Heart Rate (HR) ED25 beats/min, Compound values for each entry.
- System: β-adrenoreceptor
- procedure summary: Heart rate (pulse) increase, i.v., anesthetized dogs
- Type: in vivo, dog (male hybrid adult dogs)
- measurement context: ED25 beats/min, pulse increase; i.v., anesthetized dogs
Where a name gives a salt, the structure may show the parent alone.
State just the number; it will be interpreted in µg/kg.

{"compound": "CCC(NC(C)C)C(OC(=O)c1ccc(C)cc1)c1ccc(OC(=O)c2ccc(C)cc2)c2c1CCC(=O)N2 (stereo not drawn) [(12), hydrochloride]", "Heart Rate (HR) ED25 beats/min, Compound [µg/kg]": 8.3}
{"compound": "CCNC(CC)C(O)c1ccc(OC(=O)CC(C)C2CCCCC2)c2[nH]c(=O)ccc12.Cl (stereo not drawn)", "Heart Rate (HR) ED25 beats/min, Compound [µg/kg]": 6.5}
{"compound": "CC(C)(C)NCC(O)c1ccc(O)c(CO)c1 (stereo not drawn) [Salubutamol (1), Salbutamol, reference compound]", "Heart Rate (HR) ED25 beats/min, Compound [µg/kg]": 2.8}
{"compound": "CC(C)C(=O)Oc1ccc(C(O)C(C)NC(C)(C)C)c2ccc(=O)[nH]c12 (stereo not drawn)", "Heart Rate (HR) ED25 beats/min, Compound [µg/kg]": 3.86}
{"compound": "CCC(NC(C)C)C(O)c1ccc(OC(=O)C(C)C)c2nc(OC(=O)C(C)C)ccc12.Cl (stereo not drawn)", "Heart Rate (HR) ED25 beats/min, Compound [µg/kg]": 5.6}

Ask: Using the record for CCC(NC(C)C)C(OC(C)=O)c1ccc(OC(C)=O)c2[nH]c(=O)ccc12.Cl (stereo not drawn) , report its Heart Rate (HR) ED25 beats/min, Compound.
Result: 4.5
